- System: Staphylococcus aureus cultures
- procedure-details: Broth dilution MIC in trypticase soy broth, low and high NaCl (Example 10)
- Assay type: cell-based
- particulars: Staphylococcus aureus, culture 3139; TSB, table part marked c; read-out: MIC
assay-endpoint: MIC

Sample answers from the record:
INSERT INTO measurements (compound, assay_endpoint, observed_result) VALUES
  ('CC(=O)OCC1=C(C(=O)O)N2C(=O)C(NC(=O)CSc3cc(Cl)ccc3Cl)C2SC1 (centres unmarked)', 'MIC', '< 0.5 µg/mL'),
  ('O=C(Cc1cccs1)N[C@@H]1C(=O)N2C(C(=O)[O-])=C(C[n+]3ccccc3)CS[C@H]12 [Cephaloridine, cephaloridine, reference compound]', 'MIC', '8 µg/mL'),
  ('COc1cccc(OC)c1C(=O)N[C@@H]1C(=O)N2[C@@H]1SC(C)(C)[C@@H]2C(=O)O', 'MIC', '> 128 µg/mL'),
  ('CC(=O)OCC1=C(C(=O)O)N2C(=O)C(NC(=O)CSc3cc(Cl)cc(Cl)c3)C2SC1 (centres unmarked)', 'MIC', '2 µg/mL');

### Prompt Request body: readout MIC, system Staphylococcus aureus cultures, query CC(=O)OCC1=C(C(=O)O)N2C(=O)C(NC(=O)CSc3ccc(Cl)c(Cl)c3)C2SC1 (centres unmarked) . Return the value.
### Response 1 µg/mL
